- assayed_target: MaxL homodimer (Homo sapiens, UniProt P61244 1-160)
- Sequence (P61244 whole entry): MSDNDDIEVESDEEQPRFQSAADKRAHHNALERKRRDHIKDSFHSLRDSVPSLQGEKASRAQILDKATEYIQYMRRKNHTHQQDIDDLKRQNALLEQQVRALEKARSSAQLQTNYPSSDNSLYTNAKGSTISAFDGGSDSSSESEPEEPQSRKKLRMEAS
- assay_details: universal protein-binding microarray (PBM); PBS-based mixture, 10 nM His-tagged protein dimer, 2% milk, 200 ng/uL BSA, 50 ng/uL salmon testes DNA, 0.02% TX-100; detection with Alexa 488 anti-His antibody;; high values mean tight binding;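 also: fluorescence intensity normalized to that of the highest-ranked 8-mer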
- experimental_setup: protein: recombinant; tags: C-terminal His-tag (pET21a); chain copies: 2; dsDNA, one strand shown
In all, about 33,000 sequences were measured (“normalized occupancy”: median about 0.075, highest 2% from about 0.095 on). Only a selection was taken, and the highest values are over-represented in it overall.
value_type: log10 binding signal (log10 of the value in normalized occupancy)
log10 binding signal, normalized occupancy

Worked examples follow.
## Task Query (sequence): AACGTTAC ; field requested: log10 binding signal
## Result -1.11

## Task Query (sequence): CACGTTCC ; field requested: log10 binding signal
## Result -1.02

## Task Query (sequence): CCACGTGG ; field requested: log10 binding signal
## Result -0.01

New cases:
## Task Query (sequence): GACGTTAC ; field requested: log10 binding signal
## Result -1.13

## Task Query (sequence): AACGTTAG ; field requested: log10 binding signal
## Result -1.14

## Task Query (sequence): ACTATTCG ; field requested: log10 binding signal
## Result -1.12

## Task Query (sequence): CACGTTCA ; field requested: log10 binding signal
## Result -1.04

## Task Query (sequence): CCACGTGA ; field requested: log10 binding signal
## Result -0.32

## Task Query (sequence): CCACGTAG ; field requested: log10 binding signal
## Result -1.09

## Task Query (sequence): CACGTTAA ; field requested: log10 binding signal
## Result -1.04

## Task Query (sequence): TCACGTAA ; field requested: log10 binding signal
## Result -1.07
